- Tested on: Aspergillus fumigatus
- assayInfo: Minimum inhibitory concentration, YAG medium
- Assay type: cell-based
- conditionLabel: banded MIC grade
Would you mind telling me the reported MIC grade, A. FUMIGATUS, YAG media of each entry?

QUERY: Entry under review: `Cc1ccc(C2=NN=C(N)SC2)cc1` . Reported MIC grade, A. FUMIGATUS, YAG media?
RESULT: 3 (3: 0.2-1 mg/L)

QUERY: Entry under review: `CCOC(=O)CCCCCC1=NN=C(N)SC1` . Reported MIC grade, A. FUMIGATUS, YAG media?
RESULT: 3 (3: 0.2-1 mg/L)

QUERY: Entry under review: `NC1=NN=C(CCOc2ccccc2)CS1` . Reported MIC grade, A. FUMIGATUS, YAG media?
RESULT: 4 (4: <0.2 mg/L)

QUERY: Entry under review: `CCc1cccc(COCCCCC2=NN=C(N)SC2)c1` . Reported MIC grade, A. FUMIGATUS, YAG media?
RESULT: 4 (4: <0.2 mg/L)

QUERY: Entry under review: `Cc1cc(COCCCCC2=NN=C(N)SC2)ccc1F` . Reported MIC grade, A. FUMIGATUS, YAG media?
RESULT: 4 (4: <0.2 mg/L)

QUERY: Entry under review: `CCc1ccc(OCCCCC2=NN=C(N)SC2)cc1` . Reported MIC grade, A. FUMIGATUS, YAG media?
RESULT: 3 (3: 0.2-1 mg/L)

QUERY: Entry under review: `NC1=NN=C(CC(=O)OCc2ccccc2)CS1` . Reported MIC grade, A. FUMIGATUS, YAG media?
RESULT: 1 (1: ≥5 mg/L)

###

- System: C. albicans
- assayInfo: Minimum inhibitory concentration, RPMI medium
- Format: cell-based
- conditionLabel: banded MIC grade
- Procedure: The compound was dissolved in DMSO to give a solution containing 5 mg/mL. Tubes were stored at −20° C. until required. On the day of testing thawed solutions were vortex mixed to ensure homogeneity. 30 μL of solution was removed and added to 570 μL of sterile water in a separate sterile Eppendorf. The thoroughly mixed solution was used to prepare a series of doubling dilutions in water, in a deep well plate. […] Growth was assessed by monitoring the optical density at 485 nm for each well. […]
measurementKind: MIC grade, C. ALBICANS, RPMI media

QUERY: Entry under review: `COCCCCCCCC1=NN=C(N)SC1` . Reported MIC grade, C. ALBICANS, RPMI media?
RESULT: 4 (4: <1 mg/L)

QUERY: Entry under review: `NC1=NN=C(CCCCOCc2ccc(F)cc2)CS1` . Reported MIC grade, C. ALBICANS, RPMI media?
RESULT: 2 (2: 5-20 mg/L)

QUERY: Entry under review: `NC1=NN=C(c2ccc(Cl)c(Cl)c2)CS1` . Reported MIC grade, C. ALBICANS, RPMI media?
RESULT: 1 (1: ≥20 mg/L)

QUERY: Entry under review: `NC1=NN=C(CCCCOCCCc2ccc(F)cc2F)CS1` . Reported MIC grade, C. ALBICANS, RPMI media?
RESULT: 4 (4: <1 mg/L)

QUERY: Entry under review: `NC1=NN=C(COc2ccccc2)CS1` . Reported MIC grade, C. ALBICANS, RPMI media?
RESULT: 2 (2: 5-20 mg/L)

QUERY: Entry under review: `NC1=NN=C(CCCCOCc2cccc(-c3ccccc3)c2)CS1` . Reported MIC grade, C. ALBICANS, RPMI media?
RESULT: 2 (2: 5-20 mg/L)

QUERY: Entry under review: `CCc1cccc(COCCCCC2=NN=C(N)SC2)c1` . Reported MIC grade, C. ALBICANS, RPMI media?
RESULT: 4 (4: <1 mg/L)

QUERY: Entry under review: `NC1=NN=C(CCCCOCCc2ccccc2)CS1` . Reported MIC grade, C. ALBICANS, RPMI media?
RESULT: 3 (3: 1-5 mg/L)

QUERY: Entry under review: `NC1=NNC(c2cccc3ccccc23)=CS1` . Reported MIC grade, C. ALBICANS, RPMI media?
RESULT: 1 (1: ≥20 mg/L)

QUERY: Entry under review: `CCCCOC(=O)CC1=NN=C(N)SC1` . Reported MIC grade, C. ALBICANS, RPMI media?
RESULT: 1 (1: ≥20 mg/L)

QUERY: Entry under review: `CCCCOc1ccc(C2=NN=C(N)SC2)cc1` . Reported MIC grade, C. ALBICANS, RPMI media?
RESULT: 1 (1: ≥20 mg/L)

QUERY: Entry under review: `NC1=NN=C(CCCCOCc2cccc(Oc3ccccc3)c2)CS1` . Reported MIC grade, C. ALBICANS, RPMI media?
RESULT: 3 (3: 1-5 mg/L)

QUERY: Entry under review: `CCCCC/C=C/C1=NN=C(N)SC1` . Reported MIC grade, C. ALBICANS, RPMI media?
RESULT: 2 (2: 5-20 mg/L)
